tested on: Vero E6 infected with SARS-CoV-2; experiment: inhibition of SARS-CoV-2 cytopathic effect; higher = more antiviral protection, active = above 15; conditions: 10000 nM; 48 h
measure name: inhibition of SARS-CoV-2 cytopathic effect (%)
Answers are plain numbers, in %.

Some molecules with recorded inhibition of SARS-CoV-2 cytopathic effect:
[[record]]
molecule = "Cc1[nH]c(/C=C2\\C(=O)Nc3ccc(S(=O)(=O)N(C)c4cccc(Cl)c4)cc32)c(C)c1C(=O)N1CCN(C)CC1"
number = -1.88

[[record]]
molecule = "Nn1cnc2cc3ccccc3cc2c1=O"
number = 0.93

[[record]]
molecule = "NC(=O)[C@@H](CC1CC1)[C@@H](CCC(F)(F)F)C(=O)N[C@H]1N=C(c2ccccc2)c2cccc(F)c2NC1=O"
number = -5.54


Provide each entry's inhibition of SARS-CoV-2 cytopathic effect from the list below.
1. O=C1c2ccccc2C(=O)C1c1ccc(Cl)cc1
2. Cc1coc2c1C(=O)C(=O)c1c-2ccc2c1CCCC2(C)C

Ans.
1. 0.34
2. -6.78

Can you give me inhibition of SARS-CoV-2 cytopathic effect for all of these, one by one?
1. CC(=O)Nc1nnc(S(N)(=O)=O)s1 [acetazolamide]
2. O=C(O)c1cccnc1Nc1cccc(C(F)(F)F)c1
3. CC(=O)N(C)c1cc(-c2ccnc3c(C(=O)c4cccs4)cnn23)ccc1F
4. OC(CCCN1CCN(c2ncc(F)cn2)CC1)c1ccc(F)cc1 (centres undefined)

Ans.
1: -1.25; 2: 1.54; 3: 1.78; 4: 0.33

* * *

test system: Vero E6 infected with SARS-CoV-2; experiment: inhibition of SARS-CoV-2 cytopathic effect; higher = more antiviral protection, active = above 15; details: 10000 nM; 48 h
Give measured inhibition of SARS-CoV-2 cytopathic effect for each item. Keep answers brief.
Numbers only, in %.

Field: example entries. Status: answers known.
[[record]]
smiles_text = "Cn1c(=O)cnn(CCCCN2CCN(c3ncccn3)CC2)c1=O"
number = 1.05

[[record]]
smiles_text = "CN1CCN(C(=O)O[C@H]2c3nccnc3C(=O)N2c2ccc(Cl)cn2)CC1"
number = 0.85


Now look at this entry.
Qu. Give the measured inhibition of SARS-CoV-2 cytopathic effect for NCCCC[C@H](NC(=O)[C@@H]1CCCN1C(=O)[C@@H]1CSSC[C@H](NC(=O)CNC(=O)CNC(=O)CN)C(=O)N[C@@H](Cc2ccc(O)cc2)C(=O)N[C@@H](Cc2ccccc2)C(=O)N[C@@H](CCC(N)=O)C(=O)N[C@@H](CC(N)=O)C(=O)N1)C(=O)NCC(N)=O
Ans. 0.72

* * *

test system: Vero E6 infected with SARS-CoV-2; assay: inhibition of SARS-CoV-2 cytopathic effect; higher = more antiviral protection, active = above 15; conditions: 1 nM; 48 h
Exercise: for every item that follows, state its recorded inhibition of SARS-CoV-2 cytopathic effect.
One number for each entry, in %.

Solved cases below.
[[record]]
compound = "CC(C)N(CCCNC(=O)Nc1ccc(C(C)(C)C)cc1)C[C@H]1O[C@@H](n2cc(Br)c3c(N)ncnc32)[C@H](O)[C@@H]1O"
number = 0.32

[[record]]
compound = "Cc1cc(C)cc(NC(=O)Cc2ccc(OC(C)(C)C(=O)O)cc2)c1"
number = -0.22

[[record]]
compound = "C#CCN(C)[C@H](C)Cc1ccccc1"
number = 0.68

[[record]]
compound = "Cn1nccc1Nc1nccc(-c2ccn([C@H](CO)c3ccc(Cl)c(F)c3)c(=O)c2)n1"
number = 0.72

[[record]]
compound = "COC[C@H](NC(=O)c1cnc(C)s1)C(=O)N[C@@H](COC)C(=O)N[C@@H](Cc1ccccc1)C(=O)[C@@]1(C)CO1"
number = 0.33


Could you report inhibition of SARS-CoV-2 cytopathic effect for every entry in the following list?
1. O=C1O[C@H]([C@@H](O)CO)C([O-])=C1O.[Na+] [sodium-ascorbate]
2. CCC(C)(CN(C)C)OC(=O)c1ccccc1 (centres undefined)
3. OCc1cccnc1 [nicotinyl-alcohol-tartrate]
4. O=C(O)C1=CCCN(CCON=C(c2ccccc2)c2ccccc2)C1

Ans.
[-1.43, -1.14, -0.34, -1.65]

* * *

system: Vero E6 infected with SARS-CoV-2; assay: morphology score (similarity to uninfected cells); higher = more like uninfected cells; details: 24 h
Provide the reported morphology score of each item.
One number for each entry.

[[record]]
molecule = "Clc1cccc(-c2nnnn2Cc2cccnc2)c1Cl (10 µM)"
number = 0.0426

[[record]]
molecule = "O=C(NCC(=O)N1CCCCC1)Nc1ccc2nnsc2c1 (10 µM)"
number = -0.144

[[record]]
molecule = "CC[C@H]1OC(=O)[C@H](C)[C@@H](O[C@H]2C[C@@](C)(OC)[C@@H](O)[C@H](C)O2)[C@H](C)[C@@H](O[C@@H]2O[C@H](C)C[C@H](N(C)C)[C@H]2O)[C@](C)(OC)C[C@@H](C)C(=O)[C@H](C)[C@@H](O)[C@]1(C)O [clarithromycin] (10 µM)"
number = -0.0778

[[record]]
molecule = "Sc1nc2ccccc2s1 [benzo[d]thiazole-2(3H)-thione] (10 µM)"
number = 0.0522

[[record]]
molecule = "O=C(Nc1cccc(C(F)(F)F)c1)Nc1ccc(Br)cc1-c1nnn[nH]1 (10 µM)"
number = -0.0612

[[record]]
molecule = "CC(NCCc1ccc(O)cc1)C(O)c1ccc(O)cc1 (stereo unspecified) [ritodrine] (10 µM)"
number = 0.154

[[record]]
molecule = "O=S(=O)(O)CCS [mesna] (10 µM)"
number = 0.157

[[record]]
molecule = "Cc1[nH]c(/C=C2\\C(=O)Nc3ccc(S(=O)(=O)N(C)c4cccc(Cl)c4)cc32)c(C)c1C(=O)N1CCN(C)CC1 (10 µM)"
number = 0.493


Hi! Can you tell me morphology score for each of these molecules?
1. CC(=O)Nc1ccc(CC(=O)O)cc1 [actarit] (10 µM)
2. C[N+]1(C)[C@@H]2C[C@@H](OC(=O)[C@H](CO)c3ccccc3)C[C@H]1[C@@H]1O[C@@H]12 [methscopolamine] (10 µM)
3. Cc1[nH]c2ccc(Cl)cc2c1C1=CCNCC1 (10 µM)
4. CC1CC(OC(=O)C(O)c2ccccc2)CC(C)(C)C1 (stereo unspecified) [cyclandelate] (10 µM)
5. CC(=O)[C@H]1CC[C@H]2[C@@H]3CC[C@H]4C[C@H](O)CC[C@]4(C)[C@H]3C(=O)C[C@]12C [alfaxalone] (10 µM)

Ans.
0.181
-0.0273
0.432
0.115
-0.0143

Value sought for every listed molecule: morphology score.
1. c1cnc2cc3c(cc2n1)[C@@H]1CNC[C@H]3C1 [varenicline] (10 µM)
2. COc1cc(C(=O)NC2CCN(C)CC2)c(F)cc1Nc1ncc2c(n1)N(C1CCCC1)CC(F)(F)C(=O)N2C (0.833333 µM)
3. CC(=O)OCC(=O)[C@@]1(O)CC[C@H]2[C@@H]3CCC4=CC(=O)C=C[C@]4(C)[C@@]3(Cl)[C@@H](Cl)C[C@@]21C [dichlorisone-acetate] (10 µM)

Ans.
[-0.0409, -0.193, -0.00102]

* * *

Consider the following compounds; for each one, report its inhibition of SARS-CoV-2 cytopathic effect.
tested on: Vero E6 infected with SARS-CoV-2; assay: inhibition of SARS-CoV-2 cytopathic effect; higher = more antiviral protection, active = above 15; details: 10000 nM; 48 h
One number for each entry, in %.

Consider the reported inhibition of SARS-CoV-2 cytopathic effect for these compounds:
[[record]]
compound = "CC(C)[C@@H](CN1CC[C@@](C)(c2cccc(O)c2)[C@@H](C)C1)NC(=O)[C@H]1Cc2ccc(O)cc2CN1"
measurement_unit = "%"
number = -4.59

[[record]]
compound = "c1ccc2sc(N3CCN(Cc4ccc5c(c4)OCO5)CC3)nc2c1 [2-[1-(4-piperonyl)piperazinyl]benzothiazole]"
measurement_unit = "%"
number = -2.73

[[record]]
compound = "O=S(=O)(O)c1ccc(-c2c3nc(c(-c4ccc(S(=O)(=O)O)cc4)c4ccc([nH]4)c(-c4ccc(S(=O)(=O)O)cc4)c4nc(c(-c5ccc(S(=O)(=O)O)cc5)c5ccc2[nH]5)C=C4)C=C3)cc1"
measurement_unit = "%"
number = -7.03

[[record]]
compound = "N=C(N)NC(=O)Cc1c(Cl)cccc1Cl"
measurement_unit = "%"
number = -0.42

[[record]]
compound = "Oc1ccc(Cl)cc1Cc1cc(Cl)ccc1O"
measurement_unit = "%"
number = 1.46


// each listed compound needs a value for inhibition of SARS-CoV-2 cytopathic effect
1. O=C(O)c1cccc(-c2noc(-c3ccccc3F)n2)c1
2. C[C@H]1[C@H](C)CC[C@]2(C(=O)O)CC[C@]3(C)C(=CC[C@@H]4[C@@]5(C)C[C@@H](O)[C@H](O)[C@@](C)(CO)[C@@H]5CC[C@]43C)[C@H]12

Ans.
1: 2.92; 2: -3.69
